- Target under test: GAL4-PPARα LBD (Homo sapiens)
- Construct: chimeric receptors containing the LBD of various NRs
- Sequence (Q07869 239-466 limits assumed): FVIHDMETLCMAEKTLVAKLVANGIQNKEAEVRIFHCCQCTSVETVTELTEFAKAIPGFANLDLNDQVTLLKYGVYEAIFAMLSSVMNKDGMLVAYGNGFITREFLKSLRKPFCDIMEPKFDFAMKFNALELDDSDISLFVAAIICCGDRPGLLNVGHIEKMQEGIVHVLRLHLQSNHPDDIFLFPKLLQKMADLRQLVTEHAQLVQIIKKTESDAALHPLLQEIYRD
- Test description: GAL4-PPARα LBD luciferase reporter assay in HEK293 cells
- Condition summary: GAL4-PPARα LBD, calculated from luciferase activity with Quest Graph EC50 Calculator
pEC50: −log10 of the molar value.
Recorded metric: pEC50

Illustrative cases are given below, each with its answer.
>>> df
                                   compound              target_under_test  reported_value
0  CCCCC/C=C\C/C=C\C/C=C\CCCCC(=O)O [GLA, γ-linolenic acid, reference compound]  GAL4-PPARα LBD (Homo sapiens)            4.96
1  CCCCCC(O)CCC=CCC=CCCCCC(=O)O (stereo not shown)  GAL4-PPARα LBD (Homo sapiens)            5.55

P: CCCCCC(=O)CCC=CCC=CCCCCC(=O)O [γKetoD, 13-oxo-cis-6,cis-9-octadecadienoic acid]
Q: CC/C=C\C/C=C\C/C=C\C/C=C\C/C=C\C/C=C\CCC(=O)O [DHA, docosahexaenoic acid, reference compound]
### Prompt Out of P and Q , name the one with the higher pEC50. Please respond with the label that marks your chosen entry.
### Response P
(P: 5.38, Q: 5.03)
